Taken from patent US11406648B2.

System: RAW264.7 mouse macrophages
Experiment: Suppression of IFNγ-induced NO production (Nitric Oxide Production and Cell Viability Assay)
Format: cell-based
Settings: IFNγ-induced NO production, Griess reagent, normalized to cell viability, 2 h pre-treatment, IFNγ 24 h
Procedure: Assay results for the suppression of IFNγ-induced NO production are shown for several of the compounds of the present invention in Table 1 below. […] Details regarding this assay are provided in the Examples section below. […] Nitric Oxide concentration in media was determined using the Griess reagent system (Promega). Cell viability was determined using WST-1 reagent (Roche). IC50 values were determined based on the suppression of IFNγ induced Nitric Oxide production normalized to cell viability.
pIC50: −log10 of the molar value.
OUTCOME_MEASURE: pIC50

• CC1(C)CC[C@]2(c3nnco3)CC[C@]3(C)[C@H](C(=O)C=C4[C@@]5(C)C=C(C#N)C(=O)C(C)(C)[C@@H]5CC[C@]43C)[C@@H]2C1 = 8.96
• CC(C)c1nnc([C@]23CCC(C)(C)C[C@H]2[C@H]2C(=O)C=C4[C@@]5(C)C=C(C#N)C(=O)C(C)(C)[C@@H]5CC[C@@]4(C)[C@]2(C)CC3)o1 = 8.27
• Cc1nnc([C@]23CCC(C)(C)C[C@H]2[C@H]2C(=O)C=C4[C@@]5(C)C=C(C#N)C(=O)C(C)(C)[C@@H]5CC[C@@]4(C)[C@]2(C)CC3)o1 = 8.70
• CCCc1nnc([C@]23CCC(C)(C)C[C@H]2[C@H]2C(=O)C=C4[C@@]5(C)C=C(C#N)C(=O)C(C)(C)[C@@H]5CC[C@@]4(C)[C@]2(C)CC3)o1 = 8.24
• Cc1nnc(C[C@]23CCC(C)(C)C[C@H]2[C@H]2C(=O)C=C4[C@@]5(C)C=C(C#N)C(=O)C(C)(C)[C@@H]5CC[C@@]4(C)[C@]2(C)CC3)o1 = 8.77
• Cc1noc([C@]23CCC(C)(C)C[C@H]2[C@H]2C(=O)C=C4[C@@]5(C)C=C(C#N)C(=O)C(C)(C)[C@@H]5CC[C@@]4(C)[C@]2(C)CC3)n1 = 9.00
• CC1(C)CC[C@]2(c3nnc(C4CC4)o3)CC[C@]3(C)[C@H](C(=O)C=C4[C@@]5(C)C=C(C#N)C(=O)C(C)(C)[C@@H]5CC[C@]43C)[C@@H]2C1 = 8.48
• COCc1nnc([C@]23CCC(C)(C)C[C@H]2[C@H]2C(=O)C=C4[C@@]5(C)C=C(C#N)C(=O)C(C)(C)[C@@H]5CC[C@@]4(C)[C@]2(C)CC3)o1 = 8.74
